The reader will find reported IC50 values listed item by item below.
biological target: mouse 11β-HSD1 (Mus musculus); construct: 100 ug/ml human/mouse liver microsomes; from tissue; host or cells: mouse liver microsomes; test: Enzyme activity analysis on mouse 11β-HSD1 (HTRF cortisol, liver microsomes); assay type: biochemical; settings: second value of cell
Sequence (P50172 whole entry): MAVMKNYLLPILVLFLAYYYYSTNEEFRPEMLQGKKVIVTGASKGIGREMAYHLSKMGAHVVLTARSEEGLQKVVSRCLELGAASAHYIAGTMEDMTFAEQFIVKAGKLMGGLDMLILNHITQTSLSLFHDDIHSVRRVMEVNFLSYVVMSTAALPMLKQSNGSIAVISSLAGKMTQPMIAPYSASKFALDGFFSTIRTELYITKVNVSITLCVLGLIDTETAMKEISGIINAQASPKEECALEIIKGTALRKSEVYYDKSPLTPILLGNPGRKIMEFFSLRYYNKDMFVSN
experimentalReadout: IC50

compound | experimentalReadout | reading
Cc1ccc([N+](=O)[O-])cc1S(=O)(=O)NC(C)(C)C(=O)NC1C2CC3CC1CC(O)(C3)C2 (centres unmarked) | IC50 | 2.08 µM
CCN(C(C)(C)C(=O)NC1C2CC3CC1CC(C(N)=O)(C3)C2)S(=O)(=O)c1ccccc1F (centres unmarked) | IC50 | 0.079 µM
Cc1cc(C)cc(S(=O)(=O)NC(C)(C)C(=O)NC2C3CC4CC(C3)CC2C4)c1 (centres unmarked) | IC50 | 1.21 µM
NC(=O)C12CC3CC(C1)C(NC(=O)C1(NS(=O)(=O)c4ccccc4C(F)(F)F)CCCC1)C(C3)C2 (centres unmarked) | IC50 | 0.053 µM
CC(C)(NS(=O)(=O)c1ccc(F)cc1Cl)C(=O)NC1C2CC3CC1CC(O)(C3)C2 (centres unmarked) | IC50 | 0.213 µM
CC(C)(NS(=O)(=O)c1cccc(Br)c1)C(=O)NC1C2CC3CC1CC(C(N)=O)(C3)C2 (centres unmarked) | IC50 | 0.291 µM
NC(=O)C12CC3CC(C1)C(NC(=O)C1(NS(=O)(=O)c4ccccc4F)CCCCC1)C(C3)C2 (centres unmarked) | IC50 | 0.119 µM
CC(C)(NS(=O)(=O)c1ccc(Cl)cc1Cl)C(=O)NC1C2CC3CC(C2)CC1C3 (centres unmarked) | IC50 | 0.621 µM
O=C(NCCO)C12CC3CC(C1)C(NC(=O)C1(NS(=O)(=O)c4ccccc4Cl)CCC1)C(C3)C2 (centres unmarked) | IC50 | > 2.5 µM
NC(=O)C12CC3CC(C1)C(NC(=O)C1(NS(=O)(=O)c4cccc(Cl)c4Cl)CC1)C(C3)C2 (centres unmarked) | IC50 | 0.028 µM
CC(C)(NS(=O)(=O)c1ccccc1Br)C(=O)NC1C2CC3CC1CC(C(=O)NC1CC1)(C3)C2 (centres unmarked) | IC50 | > 2.5 µM
CC(C)(NS(=O)(=O)c1ccccc1)C(=O)NC1C2CC3CC1CC(O)(C3)C2 (centres unmarked) | IC50 | 0.378 µM
O=C(NC1C2CC3CC(C2)CC1C3)C1(NS(=O)(=O)c2ccccc2OC(F)(F)F)CCC1 (centres unmarked) | IC50 | 1.82 µM
CC(C)(NS(=O)(=O)c1cccc([N+](=O)[O-])c1)C(=O)NC1C2CC3CC(C2)CC1C3 (centres unmarked) | IC50 | 0.914 µM
CC(C)(NS(=O)(=O)c1ccccc1Cl)C(=O)NC1C2CC3CC1CC(C(=O)NC1CCCCC1)(C3)C2 (centres unmarked) | IC50 | > 2.5 µM
NC(=O)C12CC3CC(C1)C(NC(=O)C1(NS(=O)(=O)c4ccccc4Br)CCCC1)C(C3)C2 (centres unmarked) | IC50 | 0.015 µM
NC(=O)C12CC3CC(C1)C(NC(=O)C1(NS(=O)(=O)c4ccc(Br)cc4Cl)CCC1)C(C3)C2 (centres unmarked) | IC50 | 0.453 µM
CCN(C(C)(C)C(=O)NC1C2CC3CC1CC(C(N)=O)(C3)C2)S(=O)(=O)c1cccc(Cl)c1C (centres unmarked) | IC50 | 0.284 µM
Cc1c(Cl)cccc1S(=O)(=O)NC(C)(C)C(=O)NC1C2CC3CC1CC(C(N)=O)(C3)C2 (centres unmarked) | IC50 | 0.01 µM
COc1cc([N+](=O)[O-])ccc1S(=O)(=O)NC(C)(C)C(=O)NC1C2CC3CC(C2)CC1C3 (centres unmarked) | IC50 | 0.644 µM
CC(C)(NS(=O)(=O)c1ccccc1Cl)C(=O)NC1C2CC3CC(C2)CC1C3 (centres unmarked) | IC50 | 0.04 µM
CC(C)(NS(=O)(=O)c1ccc(F)cc1F)C(=O)NC1C2CC3CC(C2)CC1C3 (centres unmarked) | IC50 | 0.621 µM
CC(C)(NS(=O)(=O)Cc1ccccc1Cl)C(=O)NC1C2CC3CC1CC(C(N)=O)(C3)C2 (centres unmarked) | IC50 | > 2.5 µM
